- Method summary: Dermal and plasma concentrations of NK after oral dosing to dogs
- Assay type: in vivo
- Condition info: male, beagle, dog; oral S-NK 8.0 mg/kg/day for 28 days, dogs (N = 5); plasma; read-out: MRT Plasma
Attribute measured: MRT (h)
Give bare numbers, in h.

Record summary for O=C1Cc2ccccc2C(=C2CCNCC2)c2ccsc21 (racemic) : reported MRT = 12.8

* * *

- Method summary: Dermal and plasma concentrations of NK after oral dosing to dogs
- Format: in vivo
- Condition info: male, beagle, dog, plasma, po, 8 mg/kg/day, oral S-NK 8.0 mg/kg/day for 28 days, dogs (N = 5); plasma; read-out: T1/2 Plasma (converted)
Attribute measured: half-life (h)
One number for each entry, in h.

Record summary for O=C1Cc2ccccc2C(=C2CCNCC2)c2ccsc21 (racemic) [NK, norketotifen] : reported half-life = 10.5

* * *

- Method summary: Dermal and plasma concentrations of NK after oral dosing to dogs
- Assay type: in vivo
- Condition info: male, beagle, dog, skin, po, 8 mg/kg/day, oral S-NK 8.0 mg/kg/day for 28 days, dogs (N = 5); skin; read-out: T1/2 Skin (converted)
Attribute measured: half-life (h)
Numbers only, in h.

Record summary for O=C1Cc2ccccc2C(=C2CCNCC2)c2ccsc21 (racemic) [NK, norketotifen] : reported half-life = 168
